Provide the recorded pIC50 for the entries that follow.
# target_or_test_system: PI3K beta (Homo sapiens, UniProt P42338)
# Construct: for the full-length p110-b subunit are generated and fused by overlapping PCR; p85(iSH2) fusion partner (see partner chain) (N); His tag (C); Tn5 (Trichoplusia ni) or TiniPro insect cells
# Sequence (P42338 with tags, fused parts or gaps limits assumed): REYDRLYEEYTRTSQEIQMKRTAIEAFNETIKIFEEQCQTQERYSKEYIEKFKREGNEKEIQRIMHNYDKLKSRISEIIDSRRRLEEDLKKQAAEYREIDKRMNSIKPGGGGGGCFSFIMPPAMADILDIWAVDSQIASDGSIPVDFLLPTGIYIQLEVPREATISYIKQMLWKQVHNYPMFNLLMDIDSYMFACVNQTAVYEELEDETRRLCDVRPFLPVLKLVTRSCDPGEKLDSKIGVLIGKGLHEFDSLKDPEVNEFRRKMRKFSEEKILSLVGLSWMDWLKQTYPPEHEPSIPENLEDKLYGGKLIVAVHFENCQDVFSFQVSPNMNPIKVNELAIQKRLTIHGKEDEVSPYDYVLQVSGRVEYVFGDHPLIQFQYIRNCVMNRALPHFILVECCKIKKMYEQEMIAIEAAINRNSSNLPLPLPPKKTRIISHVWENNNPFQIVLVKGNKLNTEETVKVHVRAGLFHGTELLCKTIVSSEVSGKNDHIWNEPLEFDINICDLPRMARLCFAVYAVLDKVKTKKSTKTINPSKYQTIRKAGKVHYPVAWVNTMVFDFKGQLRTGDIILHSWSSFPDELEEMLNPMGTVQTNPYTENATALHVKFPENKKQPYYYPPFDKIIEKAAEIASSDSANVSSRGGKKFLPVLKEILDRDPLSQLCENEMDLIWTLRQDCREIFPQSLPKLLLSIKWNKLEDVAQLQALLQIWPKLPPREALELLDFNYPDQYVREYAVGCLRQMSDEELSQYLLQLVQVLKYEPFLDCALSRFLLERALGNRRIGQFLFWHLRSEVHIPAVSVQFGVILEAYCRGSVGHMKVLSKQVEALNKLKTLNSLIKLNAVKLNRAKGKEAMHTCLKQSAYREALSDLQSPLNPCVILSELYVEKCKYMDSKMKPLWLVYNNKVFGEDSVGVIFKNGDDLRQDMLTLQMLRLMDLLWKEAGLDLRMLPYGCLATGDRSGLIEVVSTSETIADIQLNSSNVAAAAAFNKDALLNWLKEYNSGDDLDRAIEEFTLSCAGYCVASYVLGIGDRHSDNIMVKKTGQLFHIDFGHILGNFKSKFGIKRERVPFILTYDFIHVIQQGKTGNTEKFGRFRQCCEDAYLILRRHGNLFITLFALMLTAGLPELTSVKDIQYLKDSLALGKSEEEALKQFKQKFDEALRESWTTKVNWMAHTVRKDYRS
# assay_protocol: PI3K beta kinase assay (Kinase-Glo luminescence)
# pIC50 = -log10(concentration in molar units)

// fetch PI3K beta (Homo sapiens, UniProt P42338) pIC50 for COCc1ncc(-c2ccc3ncc4c(c3c2)n(-c2cn(C(C)C)nc2C)c(=O)n4C)cc1OC
6.79

// fetch PI3K beta (Homo sapiens, UniProt P42338) pIC50 for CCn1cc(-n2c(=O)n(C)c3cnc4ccc(-c5cncc(C(C)(C)C#N)c5)cc4c32)c(C)n1
7.39

// fetch PI3K beta (Homo sapiens, UniProt P42338) pIC50 for CCOc1ccc(-c2ccc3ncc4c(c3c2)n(-c2cn(CC(=O)N3CCC3)nc2C)c(=O)n4C)cn1
6.42

// fetch PI3K beta (Homo sapiens, UniProt P42338) pIC50 for COc1ncc(-c2ccc3ncc4c(c3c2)n(-c2cc(C)nn2C)c(=O)n4C)c(OC)n1
6.44

// fetch PI3K beta (Homo sapiens, UniProt P42338) pIC50 for Cc1nn(C)cc1-n1c(=O)n(C)c2cnc3ccc(-c4cccc(S(=O)(=O)N(C)C)c4)cc3c21
7.29

// fetch PI3K beta (Homo sapiens, UniProt P42338) pIC50 for CCOc1cc(-c2ccc3ncc4c(c3c2)n(-c2c(C)nn(CC(=O)N(C)C)c2C)c(=O)n4C)cnc1C
6.32

// fetch PI3K beta (Homo sapiens, UniProt P42338) pIC50 for COc1ccc(-c2ccc3ncc4c(c3c2)n(-c2cnn(C)c2C)c(=O)n4C)cn1
6.78

// fetch PI3K beta (Homo sapiens, UniProt P42338) pIC50 for CNc1ncc(-c2ccc3ncc4c(c3c2)n(-c2cn(C)nc2C)c(=O)n4C)cc1C(F)(F)F
7.80

// fetch PI3K beta (Homo sapiens, UniProt P42338) pIC50 for Cc1nn(C)cc1-n1c(=O)n(C)c2cnc3ccc(-c4cc(O)cc(F)c4)cc3c21
7.34

// fetch PI3K beta (Homo sapiens, UniProt P42338) pIC50 for COc1ccc(-c2ccc3ncc4c(c3c2)n(-c2c(C)nn(C)c2C)c(=O)n4C)cc1OC
7.41

// fetch PI3K beta (Homo sapiens, UniProt P42338) pIC50 for COc1ccc(-c2ccc3ncc4c(c3c2)n(-c2c(C)cnn2C)c(=O)n4C)cn1
6.62

// fetch PI3K beta (Homo sapiens, UniProt P42338) pIC50 for CNc1ncc(-c2ccc3ncc4c(c3c2)n(-c2c(C)nn(C)c2C)c(=O)n4C)cc1COC
6.84

// fetch PI3K beta (Homo sapiens, UniProt P42338) pIC50 for CCn1cc(-n2c(=O)n(C)c3cnc4ccc(-c5cncc(N)c5)cc4c32)c(C)n1
7.54

// fetch PI3K beta (Homo sapiens, UniProt P42338) pIC50 for CNS(=O)(=O)c1cccc(-c2ccc3ncc4c(c3c2)n(-c2cn(C)nc2C)c(=O)n4C)c1
7.89

// fetch PI3K beta (Homo sapiens, UniProt P42338) pIC50 for Cc1cc(-n2c(=O)n(C)c3cnc4ccc(-c5cnc(C)c(O)c5)cc4c32)n(C)n1
7.25

// fetch PI3K beta (Homo sapiens, UniProt P42338) pIC50 for Cc1nn(C)cc1-n1c(=O)n(C)c2cnc3ccc(-c4cncc(N(C)C)c4)cc3c21
6.56
